study.system: NAD-dependent protein deacetylase sirtuin-2 (Homo sapiens)
assay.summary: Inhibition of recombinant human C-terminal His-tagged SIRT2 (50 to 389 end residues) expressed in Escherichia coli at 10 uM using p53 derived (379 to 382 residues) fluorogenic peptide substrate RHKK(Ac)-AMC preincubated for 10 mins followed by substrate addition in presence of NAD+ by fluorescence assay relative to control
# reported inhibition; entries follow
Please reply with the bare figure in % and do not write the unit itself.

>>> print(df.to_string())
                                   compound  units_text  obs_value
0  COc1ccc2ccccc2c1Cn1cnc2sc3c(c2c1=O)CCC(NC1CCc2ccccc21)C3 (stereo not given)           %         59
1  Cc1noc(C)c1CNC1CCc2c(sc3ncn(Cc4cccc(-c5ccccc5)c4)c(=O)c23)C1 (stereo not given)           %         60
2  O=c1c2c3c(sc2ncn1Cc1cccc2ccccc12)CC(NC1CCOCC1)CC3 (stereo not given)           %         59
3  COc1ccccc1CNC1CCc2c(sc3ncn(Cc4cccc5ccccc45)c(=O)c23)C1 (stereo not given)           %         60

Now for the compound whose inhibition we want.
What does the data say about its inhibition? Entry: O=c1c2c3c(sc2ncn1Cc1ccccc1)CC(NC1CCc2ccccc21)CC3 (stereo not given)
59

----------
study.system: NAD-dependent protein deacetylase sirtuin-2 (Homo sapiens) (UniProt Q8IXJ6)
Sequence (Q8IXJ6 whole entry, the tested form may be a part): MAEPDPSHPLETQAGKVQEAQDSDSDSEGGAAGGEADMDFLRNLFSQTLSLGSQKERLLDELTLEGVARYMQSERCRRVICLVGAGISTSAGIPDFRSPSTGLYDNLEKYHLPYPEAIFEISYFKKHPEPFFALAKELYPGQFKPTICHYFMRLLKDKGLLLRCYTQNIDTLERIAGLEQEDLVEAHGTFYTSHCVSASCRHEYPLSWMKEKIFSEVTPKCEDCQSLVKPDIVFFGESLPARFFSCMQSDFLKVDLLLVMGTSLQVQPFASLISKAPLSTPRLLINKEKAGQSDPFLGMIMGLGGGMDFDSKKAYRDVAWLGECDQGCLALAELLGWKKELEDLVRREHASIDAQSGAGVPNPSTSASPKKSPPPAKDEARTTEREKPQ
assay.summary: Inhibition of recombinant human C-terminal His-tagged SIRT2 (50 to 389 end residues) expressed in Escherichia coli at 10 uM using p53 derived (379 to 382 residues) fluorogenic peptide substrate RHKK(Ac)-AMC preincubated for 10 mins followed by substrate addition in presence of NAD+ by fluorescence assay relative to control
assay.metric: inhibition (%)
Please reply with the bare figure in % and do not write the unit itself.

Field: example entries. Status: answers known.
>>> df
                                   compound  obs_value
0  O=c1c2c3c(sc2ncn1Cc1cccc(-c2ccccc2)c1)CC(NCc1ccccc1F)CC3 (stereo not drawn)         43
1  O=c1c2c3c(sc2ncn1Cc1ccc2ccccc2c1)CC(NCCC1CCCCC1)CC3 (stereo not drawn)         59

What does the data say about its inhibition? Entry: O=c1c2c3c(sc2ncn1Cc1ccc2ccccc2c1)CC(NCc1cccc(F)c1)CC3 (stereo not drawn)
56
